# target or system: Hck (UniProt P08631)
# Sequence (P08631 whole entry, looked up): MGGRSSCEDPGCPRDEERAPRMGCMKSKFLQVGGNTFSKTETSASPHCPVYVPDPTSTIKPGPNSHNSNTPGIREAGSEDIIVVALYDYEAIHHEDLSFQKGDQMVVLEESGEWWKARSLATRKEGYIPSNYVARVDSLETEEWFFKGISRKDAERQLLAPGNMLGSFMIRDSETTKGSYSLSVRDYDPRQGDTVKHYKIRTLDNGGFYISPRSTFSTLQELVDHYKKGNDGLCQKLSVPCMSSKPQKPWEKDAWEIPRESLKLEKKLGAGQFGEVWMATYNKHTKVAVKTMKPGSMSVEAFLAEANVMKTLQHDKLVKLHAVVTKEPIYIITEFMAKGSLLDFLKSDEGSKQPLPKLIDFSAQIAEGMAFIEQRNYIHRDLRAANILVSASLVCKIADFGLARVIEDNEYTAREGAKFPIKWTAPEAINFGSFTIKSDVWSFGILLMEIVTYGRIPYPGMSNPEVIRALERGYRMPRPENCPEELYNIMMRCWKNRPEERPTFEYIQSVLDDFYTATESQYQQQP
# test name: phosphorylation enrichment, bacterial display (enrichment ratio); higher = better substrate or ligand; peptides without Tyr show the background;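 note: 11-residue human phosphosite peptides and single-mutation variants displayed on the E. coli surface, counted by deep sequencing, each peptide's frequency after selection divided by its frequency in the unselected input library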;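 note: frequency after pTyr selection over input frequency; kinase dosed for 20-30% of maximal phosphorylation in three min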
endpoint label: phosphorylation enrichment
Field format: numeric only.

Looking up ISDNAYQFMLT [MYH7_Y162_YF] , I see its phosphorylation enrichment listed as 0.684

Notebook: NGQALYAACQT [XDH_Y1092_V1091L] , phosphorylation enrichment read as 4.99

In plain terms, RKTAKYLLKGE [CDH5_Y82_N79T] has a documented phosphorylation enrichment of 0.672

// recorded phosphorylation enrichment for GIFKDYFRFNF [PLA2G2D_Y85_S80G_YF] : 0.579

Kindly note the recorded phosphorylation enrichment for YQLENYCNGGG [INS_Y108] , which is 0.568

# phosphorylation enrichment (sequence: MPIPMYDASQA [CARMIL1_Y637] ) is 0.552

Measured phosphorylation enrichment of KYVVVYFRETD [IL17RB_Y447_I451T] : 0.579

Sure, the documented phosphorylation enrichment for IGSQRYQLGVR [RB1_Y446_K447Q] is 0.34

GET /value?item= TENAGYFFRIS &field=phosphorylation enrichment returns 0.548

Given item RGYRQYAYDGK [HLA-A_Y140_D140Y] , the value recorded as its phosphorylation enrichment is 0.294

Record DTSKMYIPHTD [EXPH5_Y782] . Reported phosphorylation enrichment: 0.427

Field phosphorylation enrichment (entry LQTFRYHGHSM [PDHA1_Y289_YF] ) reads 0.616

For reference, reported phosphorylation enrichment for VATRWYQSPEL [CDKL5_Y177_R178Q] stands at 0.578

Record SDVLSYGVTMW [ZAP70_Y525_W523L] . Reported phosphorylation enrichment: 0.475

The measured phosphorylation enrichment associated with SNMPSYSGHFT [GRIN2A_Y1224_T1223S] reads 0.425

The recorded phosphorylation enrichment for entry ATKNDYWAMLA [WWOX_Y287_P282A] equals 0.453

Entry under test: YSMGCYEFSLG [HMGCL_Y198_I200F] . Its phosphorylation enrichment was 1.25

Reported phosphorylation enrichment for KDYETYQPFQN [CTNND2_Y1157] was 6.07

Sure, the documented phosphorylation enrichment for SFLFHYADDSF [RAB3C_Y50_R49H] is 0.399

Lab note: YRQNGYIPGSN [PCDHGA1_Y895_V894G] gave phosphorylation enrichment of 0.405

// sample LNGDRYFKGIV [DCX_Y64_R59L] , its phosphorylation enrichment was 4.24

Value of phosphorylation enrichment reported for the sequence PTYEHYANSTQ [SLC12A3_Y70] is 1.53

sequence GGKYSYLKVGH [GRM3_Y480] , phosphorylation enrichment observed: 0.388

Summary for this sequence, AHLTEYLSTHY [UQCRC1_Y219_D215H] : phosphorylation enrichment is 0.517

Notebook: PKGTGCIKTEL [STAT1_Y701_Y701C] , phosphorylation enrichment read as 0.689

Form field phosphorylation enrichment, entry FVSLIYTNFEA [GSTP1_Y109_I105V_YF] : 3.31

# sequence REENGYNTFAS [FGF10_Y161_I156R_YF] ; its phosphorylation enrichment = 0.4

// RFVSRYIFNRE [HLA-DQB1_Y62_T60S_YF] : phosphorylation enrichment value = 0.79

Lookup result for GCLSKYSGVFS [TUBGCP6_Y1624_V1621L] ; measured phosphorylation enrichment: 0.542

Value of measured phosphorylation enrichment for the entry LRVHSYKSMQH [DRC7_Y516_P521H] : 0.634

The recorded phosphorylation enrichment for entry LLANAYIYVVQ [L1CAM_Y418] equals 0.687

CGTPEYRAPEI [PRKACA_Y205_L206R] has a reported phosphorylation enrichment of 0.549

Sure, the documented phosphorylation enrichment for TVSTGYTQPQP [SARG_Y259_R258G] is 0.47

phosphorylation enrichment for CRVEPYGENFN [APOA4_Y310_R305C] is 0.608

Value of measured phosphorylation enrichment for the entry NTYENYWPFYQ [GATM_Y103_K102N] : 7.34

src = the supplement of paper PMC10065799
